Some compounds, each annotated with its measured log10 EC50.
- system-name: Transthyretin (Homo sapiens, UniProt P02766, V50M)
- protocol: Inhibition of TTR V30M mutant (unknown origin) expressed in Escherichia coli assessed as inhibition of amyloid fibril formation by fluorescence assay
- applied-conditions: read-out: EC50
A difference of one corresponds to tenfold EC50; all values are log10 with EC50 in µM.

compound: CC(Cc1ccc(O)c(O)c1)C(C)Cc1ccc(O)c(O)c1 (configuration not stated) [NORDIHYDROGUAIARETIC ACID]
system-name: Transthyretin (Homo sapiens, UniProt P02766, V50M)
log10 EC50: 0.86
//
compound: CC(C)=CCOC(=O)/C=C/c1ccc(O)c(O)c1 [PRENYL CAFFEATE]
system-name: Transthyretin (Homo sapiens, UniProt P02766, V50M)
log10 EC50: 1.32
//
compound: O=C(O)/C=C/c1ccc(O)c(O)c1
system-name: Transthyretin (Homo sapiens, UniProt P02766, V50M)
log10 EC50: 1.99

Entry under test: `O=C(/C=C/c1ccc(O)c(O)c1)OCCc1ccccc1` . Its log10 EC50 was 0.93

Entry under test: COc1cc(CC(C)C(C)Cc2ccc(O)c(OC)c2)ccc1O (configuration not stated) [DIHYDROGUAIARETIC ACID] . Its log10 EC50 was 0.80

Entry under test: O=C(/C=C/c1ccc(O)c(O)c1)OCc1ccccc1 [BENZYL CAFFEATE] . Its log10 EC50 was 1.20

Entry under test: `O=C(/C=C/c1ccc(O)c(O)c1)O[C@H](Cc1ccc(O)c(O)c1)C(=O)O` . Its log10 EC50 was 0.93

Entry under test: `COc1ccc(/C=C/C(=O)OCCc2ccccc2)cc1O` . Its log10 EC50 was 1.04

Entry under test: `COc1cc(/C=C/C(=O)OCCc2ccccc2)ccc1O` . Its log10 EC50 was 0.90

Entry under test: CCOC(=O)/C=C/c1ccc(O)c(O)c1 [ETHYL CAFFEATE] . Its log10 EC50 was 1.36

Entry under test: `COc1ccc(/C=C/C(=O)OCCc2ccccc2)cc1OC` . Its log10 EC50 was 1.76

Entry under test: COC(=O)/C=C/c1ccc(O)c(O)c1 [METHYLCAFFEATE] . Its log10 EC50 was 1.83

* * *

- System: Transthyretin (Homo sapiens), P02766 [V50M]
- protocol: Competitive binding to TTR V30M mutant (unknown origin) expressed in Escherichia coli at 1 to 80 uM by fluorescence assay
The source made the active and inactive calls. The calls are words filed in the database; no cut-off is given here.
Write down one outcome, taken from t (active), f (inactive)

Please review the entries below; each comes with its answer.
compound: COc1cc(/C=C/C(=O)OCCc2ccccc2)ccc1O
system-name: Transthyretin (Homo sapiens), P02766 [V50M]
label-value: f

compound: O=C(/C=C/c1ccc(O)c(O)c1)OCc1ccccc1 [BENZYL CAFFEATE]
system-name: Transthyretin (Homo sapiens), P02766 [V50M]
label-value: t

compound: CCOC(=O)/C=C/c1ccc(O)c(O)c1 [ETHYL CAFFEATE]
system-name: Transthyretin (Homo sapiens), P02766 [V50M]
label-value: f

compound: COc1cc(CC(C)C(C)Cc2ccc(O)c(OC)c2)ccc1O (configuration not stated) [DIHYDROGUAIARETIC ACID]
system-name: Transthyretin (Homo sapiens), P02766 [V50M]
label-value: f

compound: O=C(O)/C=C/c1ccc(O)c(O)c1 [CAFFEIC ACID]
system-name: Transthyretin (Homo sapiens), P02766 [V50M]
label-value: f

compound: O=C(/C=C/c1ccc(O)c(O)c1)O[C@H](Cc1ccc(O)c(O)c1)C(=O)O [ROSMARINIC ACID]
system-name: Transthyretin (Homo sapiens), P02766 [V50M]
label-value: f

compound: CC(Cc1ccc(O)c(O)c1)C(C)Cc1ccc(O)c(O)c1 (configuration not stated) [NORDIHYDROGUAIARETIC ACID]
system-name: Transthyretin (Homo sapiens), P02766 [V50M]
label-value: f

compound: COc1ccc(/C=C/C(=O)OCCc2ccccc2)cc1O
system-name: Transthyretin (Homo sapiens), P02766 [V50M]
label-value: f

compound: O=C(/C=C/c1ccc(O)c(O)c1)OCCc1ccccc1 [CAFFEIC ACID PHENETHYL ESTER]
system-name: Transthyretin (Homo sapiens), P02766 [V50M]
label-value: f

compound: CC(C)=CCOC(=O)/C=C/c1ccc(O)c(O)c1 [PRENYL CAFFEATE]
system-name: Transthyretin (Homo sapiens), P02766 [V50M]
label-value: f

What call does the record list for `COc1ccc(/C=C/C(=O)OCCc2ccccc2)cc1OC` ?
f

What call does the record list for COC(=O)/C=C/c1ccc(O)c(O)c1 [METHYLCAFFEATE] ?
f

Values compiled from ChEMBL document CHEMBL3351774.
